Experiment: chemical genetic growth profiling, strain panel (AID 1159580);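 note: tested at 20 µM; growth read once vehicle control cultures reached saturation at 30 °C; 1 = growth at the plate median or of vehicle wells; lower values mean less growth of the strain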
Details: S. cerevisiae deletion strains, growth OD, locus YPR119W, strain clb2, stronger effect = lower value
Screen size: about 5,500 compounds; about 2,000 (36%) were called active. Roughly 18% stayed inconclusive and do not appear here. The list shows a part of the results.
Consider the following compounds and their measured normalized growth readings.

# example entries with known answers
compound=CC(=O)Oc1cccc(O)c1 result="1.01 (inactive)"
compound=CC(=O)Oc1ccc(/C=C/c2cc(OC(C)=O)cc(OC(C)=O)c2)cc1 result="1.01 (inactive)"
compound=COC(=O)c1c(OC)cc2c(c1C)Oc1c(Cl)c(O)c(Cl)c(C)c1C(=O)O2 result="0.937 (inactive)"
compound=COc1c(C)c2c(c(C)c1Cl)Oc1c(Cl)c(OC)c(Cl)c(C)c1C(=O)O2 result="1 (inactive)"

For reference, reported normalized growth for CC(C)CC1NC(=O)CNC1=O (stereo unspecified) stands at 0.985 (inactive)

For reference, reported normalized growth for COC(=O)c1c(OC)cc2c(c1C)Oc1c(Cl)c(OC(C)=O)c(Cl)c(C)c1C(=O)O2 stands at 1 (inactive)

For reference, reported normalized growth for C=C(C)C1CCC(C)(O)C2CC3OC3(C)C2C1 (stereo unspecified) stands at 1.01 (inactive)

For reference, reported normalized growth for CC(C)=CCc1c2c(c3occ(-c4ccc(O)c(O)c4)c(=O)c3c1O)C=CC(C)(C)O2 stands at 0.965 (inactive)

For reference, reported normalized growth for CC(=O)Oc1c(Cl)c(C)c2c(c1Cl)OC(=O)c1c(C)c(Cl)c(OC(C)=O)c(Cl)c1O2 stands at 1.01 (inactive)

For reference, reported normalized growth for CCCc1c(OCCCCc2nn[nH]n2)ccc(C(C)=O)c1O stands at 0.992 (inactive)

For reference, reported normalized growth for CC(=O)Oc1ccc(O)cc1 stands at 1.01 (inactive)

* * *

Assay: chemical genetic growth profiling, strain panel (AID 1159580)
Settings: S. cerevisiae deletion strains, growth OD, locus YIL125W, strain kgd1
Hit rate of the full screen: of about 5,500 compounds, about 2,000 (36%) were called active. Inconclusive results (about 18%) are left out. Rule as the data show it: active = normalized growth mostly below about 0.91 (no sharp cut-off); inconclusive = no clear call, values can overlap the other calls; inactive = mostly above about 0.92. Some of the results follow.
Output constraint: value belongs to active, inactive

compound="CC(=O)O[C@@H]1CC2C(C)(C)[C@H](O)C=C[C@]2(C)C2CC[C@]3(C)C(=CC(=O)O[C@H]3c3ccoc3)[C@@]21C (stereo partly specified)" discrete_label=inactive
compound="C[C@H](CCC(=O)O)[C@H]1CCC2C3C(=O)CC4CC(=O)CC[C@]4(C)C3CC(=O)[C@@]21C (stereo partly specified)" discrete_label=inactive
compound="CC(C)CC(NC(=O)OCC1c2ccccc2-c2ccccc21)C(=O)O (stereo unspecified)" discrete_label=inactive
compound="CC(=O)OC1CCC2(C)C(CC(OC(C)=O)C3(C)C4=CC(=O)OC(c5ccoc5)C4(C)CCC23)C1(C)C (stereo unspecified)" discrete_label=inactive

Problem: For CCN(CC)CCOC(=O)C(c1ccccc1)C1CCCCC1 (stereo unspecified) , which call appears in the assay record?
Solution: inactive

Problem: For CC(CCC(=O)O)[C@H]1CCC2C3CC[C@@H]4CC(=O)CC[C@]4(C)C3C=C[C@@]21C (stereo partly specified) , which call appears in the assay record?
Solution: inactive

Problem: For C=C1c2cccc(O)c2C(O)=C2C(=O)[C@]3(O)C(O)=C(C(N)=O)C(=O)[C@@H](N(C)C)[C@@H]3[C@@H](O)[C@H]12 , which call appears in the assay record?
Solution: inactive

Problem: For CC(Cc1cccc(C(F)(F)F)c1)NCCOC(=O)c1ccccc1 (stereo unspecified) , which call appears in the assay record?
Solution: inactive

Problem: For COc1ccc(C2Sc3ccccc3N(CCN(C)C)C(=O)C2OC(C)=O)cc1 (stereo unspecified) , which call appears in the assay record?
Solution: inactive

Problem: For C=C(C)C1CCC(C)(O)C2CC3OC3(C)C2C1 (stereo unspecified) , which call appears in the assay record?
Solution: inactive

Problem: For O=C(O)c1cc(O)c2c(c1)[C@@H]([C@H]1c3cc(C(=O)O)cc(O)c3C(=O)c3c(O[C@H]4O[C@H](CO)[C@@H](O)[C@H](O)[C@H]4O)cccc31)c1cccc(O[C@H]3O[C@H](CO)[C@@H](O)[C@H](O)[C@H]3O)c1C2=O , which call appears in the assay record?
Solution: inactive

Problem: For CN(C)CCCN1c2ccccc2CCc2ccc(Cl)cc21 , which call appears in the assay record?
Solution: inactive

* * *

Consider the following compounds and their measured normalized growth readings.
Test: chemical genetic growth profiling, strain panel (AID 1159580)
Conditions: S. cerevisiae deletion strains, growth OD, locus YMR231W, strain pep5, stronger effect = lower value
The campaign covered roughly 5,500 compounds. About 2,000 (36%) were called active. Roughly 18% stayed inconclusive and do not appear here. Some of the results follow.
Respond numerically, and do not add a unit to the figure.

# example entries with known answers
compound=CS(=O)(=O)Nc1ccc([N+](=O)[O-])cc1Oc1ccccc1 quantitative_result=1
compound="CC12CCC(=O)C=C1CCC1C2[C@@H](O)CC2(C)C1CC[C@]2(O)C(=O)COP(=O)(O)O (stereo not given in full)" quantitative_result=1
compound=N[C@@H](CCC(=O)N[C@@H](CS)C(=O)NCC(=O)O)C(=O)O quantitative_result=1.02
compound=CCN(CC)CCOCCOC(=O)C1(c2ccccc2)CCCC1 quantitative_result=0.996

Then this compound:
For reference, reported normalized growth for CC(C)=CCc1c2c(c3occ(-c4ccc(O)c(O)c4)c(=O)c3c1O)C=CC(C)(C)O2 stands at 0.984

* * *

Assay: chemical genetic growth profiling, strain panel (AID 1159580);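 note: tested at 20 µM; growth read once vehicle control cultures reached saturation at 30 °C; 1 = growth at the plate median or of vehicle wells; lower values mean less growth of the strain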
Conditions: S. cerevisiae deletion strains, growth OD, locus YJL164C, strain tpk1, stronger effect = lower value
About 2,000 (36%) of roughly 5,500 compounds were called active. Roughly 18% stayed inconclusive and do not appear here. This is one part of the list.
observable: normalized growth
Respond numerically, and do not add a unit to the figure.

compound=Nc1ccc(C(=O)O)cc1 observable="normalized growth" quantitative_result=1

For reference, reported normalized growth for C/C=C\C1=C(C(=O)O)N2C(=O)C(NC(=O)C(N)c3ccc(O)cc3)C2SC1 (centres undefined) stands at 1.02

* * *

Assay: chemical genetic growth profiling, strain panel (AID 1159580);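 note: tested at 20 µM; growth read once vehicle control cultures reached saturation at 30 °C; 1 = growth at the plate median or of vehicle wells; lower values mean less growth of the strain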
Conditions: S. cerevisiae deletion strains, growth OD, locus YDR334W, strain swr1
Among all 5,500 compounds or so, about 2,000 (36%) were called active. Roughly 18% stayed inconclusive and do not appear here. Cut-off read from the data, not from the text of the source: active = normalized growth mostly below about 0.91 (no sharp cut-off); inconclusive = no clear call, values can overlap the other calls; inactive = mostly above about 0.92. The list shows a part of the results.
Output constraint: value belongs to Yes = active, No = inactive

As a guide, the following entries are already answered.
molecule="COc1ccc(C2Sc3ccccc3N(CCN(C)C)C(=O)C2OC(C)=O)cc1 (configuration not stated)" discrete_label=No
molecule="CC12CCC3C(CC3(C)C)C(C)(CCC1=O)O2 (configuration not stated)" discrete_label=No

Query molecule follows.
Problem: For CC(=O)O[C@@H]1CC2C(C)(C)[C@H](O)C=C[C@]2(C)C2CC[C@]3(C)C(=CC(=O)O[C@H]3c3ccoc3)[C@@]21C (some centres not stated) , which call appears in the assay record?
Solution: No

* * *

Assay: chemical genetic growth profiling, strain panel (AID 1159580);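 note: tested at 20 µM; growth read once vehicle control cultures reached saturation at 30 °C; 1 = growth at the plate median or of vehicle wells; lower values mean less growth of the strain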
Conditions: S. cerevisiae deletion strains, growth OD, locus YOR001W, strain rrp6, stronger effect = lower value
In all, about 5,500 compounds went through this assay and about 2,000 (36%) were called active. Another 18% or so got no clear call; they are omitted. Some of the results follow.
Consider the following compounds and their measured normalized growth readings.
Respond numerically, and do not add a unit to the figure.

compound=CN(C)CCCN1c2ccccc2Sc2ccc(C(F)(F)F)cc21 observable="normalized growth" quantitative_result=0.938

For reference, reported normalized growth for O=P1(N(CCCl)CCCl)NCCCO1 (stereo unspecified) stands at 0.934

For reference, reported normalized growth for CC(=O)Oc1ccc(/C=C/c2cc(OC(C)=O)cc(OC(C)=O)c2)cc1 stands at 0.96

For reference, reported normalized growth for CC(=O)Oc1ccc(O)cc1 stands at 0.992

For reference, reported normalized growth for COc1ccc(C2Sc3ccccc3N(CCN(C)C)C(=O)C2OC(C)=O)cc1 (stereo unspecified) stands at 0.945

For reference, reported normalized growth for CC(=O)Oc1ccc(C(c2ccc(OC(C)=O)cc2)c2ccccn2)cc1 stands at 0.973

For reference, reported normalized growth for CC(C)C[C@@H](CN)CC(=O)O stands at 1.01

For reference, reported normalized growth for O=C(OCc1ccccc1)c1ccccc1 stands at 0.916

For reference, reported normalized growth for COc1ccc([C@@H]2CC(=O)c3c(O)cc(O[C@@H]4O[C@H](CO[C@H]5O[C@@H](C)[C@H](O)[C@@H](O)[C@H]5O)[C@@H](O)[C@H](O)[C@H]4O)cc3O2)cc1O stands at 1.03

For reference, reported normalized growth for CN(C)CCCN1c2ccccc2Sc2ccccc21 stands at 0.96

For reference, reported normalized growth for NC(=O)NC(=O)Cc1ccccc1 stands at 1.02
